biological target: GlcNAc(b1-2)Man(a1-3)[GlcNAc(b1-2)Man(a1-6)]Man(b1-4)GlcNAc(b1-4)GlcNAc; experiment: glycan array binding signal (z-score within array); higher = stronger binding; details: glycan notation: IUPAC condensed, linker removed
The sample as a whole holds a higher share of the strongest signals than the screen did.
Reported glycan array binding signal (z-score) values for a set of binders

| binder | glycan array binding signal (z-score) |
| --- | --- |
| Cohesin-hMARCO (Homo sapiens) (protein) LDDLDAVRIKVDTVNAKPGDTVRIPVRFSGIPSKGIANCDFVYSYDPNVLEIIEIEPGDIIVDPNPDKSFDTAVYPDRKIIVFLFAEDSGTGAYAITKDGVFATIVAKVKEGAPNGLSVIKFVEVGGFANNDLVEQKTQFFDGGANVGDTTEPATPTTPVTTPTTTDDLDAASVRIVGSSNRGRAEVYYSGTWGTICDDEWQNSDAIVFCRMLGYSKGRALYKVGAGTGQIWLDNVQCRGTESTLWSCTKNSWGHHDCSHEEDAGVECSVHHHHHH | -0.381 |
| SalT (Orysata sativa) (protein) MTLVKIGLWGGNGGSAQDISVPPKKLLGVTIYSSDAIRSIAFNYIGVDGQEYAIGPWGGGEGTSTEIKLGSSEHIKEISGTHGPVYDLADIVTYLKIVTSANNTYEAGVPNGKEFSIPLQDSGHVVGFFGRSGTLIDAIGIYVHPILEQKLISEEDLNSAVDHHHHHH | 4.06 |
| S100A12 (Homo sapiens), P80511 (protein) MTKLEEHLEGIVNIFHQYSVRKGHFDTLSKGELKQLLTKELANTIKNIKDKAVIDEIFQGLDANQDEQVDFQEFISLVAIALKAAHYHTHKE | 1.79 |
